Origin of values: ChEMBL document CHEMBL3627713

System: THP-1
Assay: Cytotoxicity against human THP1 cells assessed as growth inhibition at 50 uM after 48 hrs by sulforhodamine B assay relative to control
Assay type: functional
Settings: THP-1, 48 h, read-out: GI
Field: inhibition of growth at 50 µM. Provide a value for each of the compounds that follow.
One number for each entry, in %.

- smiles_code: "COc1ccc(/C=C/C(=O)/C=C/c2ccc(OCc3cn(CCN4C(=O)C(=O)c5cc(Cl)ccc54)nn3)c(OC)c2)cc1OC"
  quantitative_result: 77

Okay, here is my list. What is inhibition of growth at 50 µM for each of these?
1. COc1cc(/C=C/C(=O)/C=C/c2ccc([N+](=O)[O-])cc2)ccc1OCc1cn(CCN2C(=O)C(=O)c3ccccc32)nn1
2. COc1cc(/C=C/C(=O)/C=C/c2ccco2)ccc1OCc1cn(CCN2C(=O)C(=O)c3cc(Cl)ccc32)nn1
3. COc1cc(/C=C/C(=O)/C=C/c2cccc(Br)c2)ccc1OCc1cn(CCN2C(=O)C(=O)c3cc(Br)ccc32)nn1
4. COc1cc(/C=C/C(=O)/C=C/c2ccco2)ccc1OCc1cn(CCN2C(=O)C(=O)c3ccccc32)nn1
5. COc1cc(/C=C/C(=O)/C=C/c2ccccc2)ccc1OCc1cn(CCN2C(=O)C(=O)c3cc(Cl)ccc32)nn1
6. COc1cc(/C=C/C(=O)/C=C/c2ccccc2)ccc1OCc1cn(CCN2C(=O)C(=O)c3cc(Br)ccc32)nn1

1. 35
2. 41
3. 12
4. 72
5. 65
6. 54
